Every entry's value here was drawn from patent US20240116985A1.

Biological target: T1, B-cat-Halo (NanoBRET construct expressed in HEK293 cells) (UniProt P35222 1-781, HaloTag NanoBRET 618 Ligand bound in the assay)
T1 sequence (looked up): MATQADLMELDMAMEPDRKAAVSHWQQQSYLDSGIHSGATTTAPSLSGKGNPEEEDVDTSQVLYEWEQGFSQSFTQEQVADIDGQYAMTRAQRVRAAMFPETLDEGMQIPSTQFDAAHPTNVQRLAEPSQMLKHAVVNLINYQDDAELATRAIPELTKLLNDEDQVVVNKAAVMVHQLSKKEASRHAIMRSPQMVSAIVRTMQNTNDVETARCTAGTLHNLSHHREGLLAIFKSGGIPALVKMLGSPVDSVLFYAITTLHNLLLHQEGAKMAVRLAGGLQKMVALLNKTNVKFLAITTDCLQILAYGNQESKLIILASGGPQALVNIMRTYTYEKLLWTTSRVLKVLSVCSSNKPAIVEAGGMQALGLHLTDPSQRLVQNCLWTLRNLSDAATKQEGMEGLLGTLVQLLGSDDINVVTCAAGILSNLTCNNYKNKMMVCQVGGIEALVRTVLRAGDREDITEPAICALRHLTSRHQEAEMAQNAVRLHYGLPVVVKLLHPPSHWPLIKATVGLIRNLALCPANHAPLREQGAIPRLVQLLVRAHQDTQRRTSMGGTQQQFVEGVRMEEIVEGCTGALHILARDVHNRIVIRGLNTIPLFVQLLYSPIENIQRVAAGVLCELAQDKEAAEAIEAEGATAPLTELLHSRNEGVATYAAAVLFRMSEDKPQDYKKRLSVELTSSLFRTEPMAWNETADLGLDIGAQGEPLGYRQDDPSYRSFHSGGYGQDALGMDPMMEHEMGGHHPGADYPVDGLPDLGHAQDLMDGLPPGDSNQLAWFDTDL
Assay: cell-based or functional assay
Starred links: 1 amine or outer side, 2 acyl side, 3 side chain; linkers in the order of their positions; H or OH if unused. Positions of bridges follow the written chain, without caps; N, C: chain ends. Non-standard residues stand in square brackets, D forms with d. Primed or numbered codes have the meaning given here. B5(4) = 2,2-bis(4-pentenyl)glycine = 2-amino-2-(pent-4-en-1-yl)hept-6-enoic acid (stitching residue), C=CCCCC(CCCC=C)(N[*:1])C(=O)[*:2]; TfeGA = (S)-2-amino-3-((carboxymethyl)(2,2,2-trifluoroethyl)amino)propanoic acid, O=C([C@H](CN(CC(=O)[*:3])CC(F)(F)F)N[*:1])[*:2]; PyrS2 = (S)-3-amino-1-((pent-4-en-1-yloxy)carbonyl)pyrrolidine-3-carboxylic acid, C=CCCCOC(=O)N1CC[C@@](N[*:1])(C(=O)[*:2])C1; PyrS3 = (S)-3-amino-1-((hex-5-en-1-yloxy)carbonyl)pyrrolidine-3-carboxylic acid, C=CCCCCOC(=O)N1CC[C@@](N[*:1])(C(=O)[*:2])C1; B5(7) = 2-amino-2-(pent-4-en-1-yl)hept-6-enoic acid, two olefinic side chains, C=CCCCC(CCCC=C)(N[*:1])C(=O)[*:2]; Bta = N[C@@H](Cc1csc2ccccc12)C(=O)O; αAllylPro = C=CC[C@@]1(C(=O)O)CCCN1; tBuAla = CC(C)(C)C[C@H](N)C(=O)O; 3Thi = N[C@@H](Cc1ccsc1)C(=O)O; S8 = C=CCCCCCC[C@](C)(N)C(=O)O
assay endpoint: NanoBRET Abs IC50

- Ac-[αAllylPro]D[tBuAla][B5(7)]D[TfeGA]AAFN[PyrS2][3Thi][Bta]H-NH2 (staple 1-4, 4-11) [I-770]: 13.7 µM
- Ac-[αAllylPro]D[tBuAla][B5(7)]DDAAFQ[PyrS2][3Thi][Bta]H-NH2 (staple 1-4, 4-11) [I-772]: > 20 µM
- Ac-[αAllylPro]D[tBuAla][B5(7)]DDAAFQ[PyrS2][3Thi][Bta]H-NH2 (staple 1-4, 4-11) [I-771]: 37.3 µM
- Ac-[αAllylPro]DL[B5(4)]DEAAFN[S8]F[Bta]N-NH2 (staple 1-4, 4-11; also: olefin E/Z not assigned, earlier-eluting staple isomer, Stapled peptide; also called Ac-PL3-Asp-Leu-B5-Asp-Glu-Ala-Ala-Phe-Asn-S8-Phe-BztA-Asn-NH2) [I-752]: 9.9 µM
- Ac-[αAllylPro]D[tBuAla][B5(7)]DDAAFN[PyrS3][3Thi][Bta]Q-NH2 (staple 1-4, 4-11) [I-768]: 31.4 µM
- Ac-[αAllylPro]D[tBuAla][B5(7)]DDAAFQ[PyrS2][3Thi][Bta]Q-NH2 (staple 1-4, 4-11) [I-764]: 30.9 µM
- Ac-[αAllylPro]D[tBuAla][B5(7)]DDAAFQ[PyrS2][3Thi][Bta]Q-NH2 (staple 1-4, 4-11) [I-763]: 21.3 µM
- Ac-[αAllylPro]D[tBuAla][B5(7)]D[TfeGA]AAFN[PyrS2][3Thi][Bta]H-NH2 (staple 1-4, 4-11) [I-769]: 13 µM
